molecular target: Recombinant human integrin αvβ6 (Homo sapiens, UniProt P06756+P18564); assay: Solid Phase Receptor Assay for αvβ6 Function; conditions: binding to LAP-coated plate; read-out: αvβ6 SPRA IC50
Sequence (P06756 31-992 limits assumed): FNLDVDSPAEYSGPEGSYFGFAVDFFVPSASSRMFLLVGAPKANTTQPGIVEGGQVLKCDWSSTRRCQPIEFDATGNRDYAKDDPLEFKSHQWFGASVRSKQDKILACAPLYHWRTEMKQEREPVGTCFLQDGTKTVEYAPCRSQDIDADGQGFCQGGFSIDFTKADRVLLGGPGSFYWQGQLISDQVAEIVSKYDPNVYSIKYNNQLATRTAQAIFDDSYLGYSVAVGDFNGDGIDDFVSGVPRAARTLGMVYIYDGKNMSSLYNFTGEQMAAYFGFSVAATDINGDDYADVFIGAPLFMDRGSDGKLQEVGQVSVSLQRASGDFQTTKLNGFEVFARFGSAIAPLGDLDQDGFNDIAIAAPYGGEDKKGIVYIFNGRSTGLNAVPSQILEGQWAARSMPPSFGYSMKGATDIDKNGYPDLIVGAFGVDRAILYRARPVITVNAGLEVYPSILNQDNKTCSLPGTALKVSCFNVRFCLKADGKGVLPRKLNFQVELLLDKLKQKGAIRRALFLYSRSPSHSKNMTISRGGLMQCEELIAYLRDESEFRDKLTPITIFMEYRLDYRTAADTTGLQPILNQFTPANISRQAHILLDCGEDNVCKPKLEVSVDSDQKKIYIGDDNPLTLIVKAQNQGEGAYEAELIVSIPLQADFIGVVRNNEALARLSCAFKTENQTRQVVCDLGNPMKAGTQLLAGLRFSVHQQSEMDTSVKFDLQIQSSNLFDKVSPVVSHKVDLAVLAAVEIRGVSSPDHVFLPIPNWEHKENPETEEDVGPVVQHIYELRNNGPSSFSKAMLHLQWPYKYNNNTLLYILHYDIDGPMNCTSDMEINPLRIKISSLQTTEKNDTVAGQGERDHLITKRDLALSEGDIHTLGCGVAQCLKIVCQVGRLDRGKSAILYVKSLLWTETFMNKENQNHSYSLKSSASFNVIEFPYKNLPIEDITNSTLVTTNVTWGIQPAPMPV
Sequence (P18564 22-707 limits assumed): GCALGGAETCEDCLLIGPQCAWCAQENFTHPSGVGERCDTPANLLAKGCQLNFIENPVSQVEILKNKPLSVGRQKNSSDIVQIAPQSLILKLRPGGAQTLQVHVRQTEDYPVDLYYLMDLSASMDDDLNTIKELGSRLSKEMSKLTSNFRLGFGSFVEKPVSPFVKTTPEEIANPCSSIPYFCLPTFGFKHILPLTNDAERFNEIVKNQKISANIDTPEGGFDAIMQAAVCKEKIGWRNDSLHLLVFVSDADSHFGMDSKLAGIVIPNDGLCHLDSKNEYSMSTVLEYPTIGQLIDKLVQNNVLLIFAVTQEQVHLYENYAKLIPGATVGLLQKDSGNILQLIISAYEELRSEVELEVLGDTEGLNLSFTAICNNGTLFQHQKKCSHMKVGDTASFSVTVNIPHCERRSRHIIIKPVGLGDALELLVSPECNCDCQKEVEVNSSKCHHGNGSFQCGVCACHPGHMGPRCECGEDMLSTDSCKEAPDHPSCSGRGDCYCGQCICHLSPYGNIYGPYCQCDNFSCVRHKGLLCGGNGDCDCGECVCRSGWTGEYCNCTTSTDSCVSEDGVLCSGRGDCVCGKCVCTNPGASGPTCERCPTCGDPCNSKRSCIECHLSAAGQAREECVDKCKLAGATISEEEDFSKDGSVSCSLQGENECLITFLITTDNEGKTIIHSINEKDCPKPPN
Criterion: IC50 strictly less than 0.5 nM. Met: YES. Not met: NO.

> print(dat)
                                   compound  classification
1  N#CC1(c2cc(Cl)cc([C@H](CC(=O)O)NC(=O)CNC(=O)c3cc(O)cc(NC4=NCC(O)CN4)c3)c2)CCC1 (stereo partly shown)             YES
2  COCC(C)(C)c1cc(Cl)cc([C@H](CC(=O)O)NC(=O)CNC(=O)c2cc(O)cc(NC3=NCC(O)CN3)c2)c1 (stereo partly shown)             YES
3  CC(C)(C)c1cc(Br)cc([C@H](CC(=O)O)NC(=O)CNC(=O)c2cccc(NC3=NCCN3)c2)c1             YES
4  CC(C)(O)c1cc(Br)cc([C@H](CC(=O)O)NC(=O)CNC(=O)c2cc(O)cc(NC3=NCC(O)CN3)c2)c1 (stereo partly shown)              NO
